# assay text: Ratio of drug level in CD1 mouse brain to plasma at 30 mg/kg, ip
# Format: ADME, organism-based
# protocol conditions: read-out: BPR
test readout: Kp

Task: Consider the molecule COc1ccc2c(c1)[nH]c1c(C)nccc12 [HARMINE] . State its measured Kp.
Result: 9 to 10
